// values below are reported normalized RNA/DNA level with ligand (log10)
B1: library; a variant is named by its letters at N, in order (parent)
chain: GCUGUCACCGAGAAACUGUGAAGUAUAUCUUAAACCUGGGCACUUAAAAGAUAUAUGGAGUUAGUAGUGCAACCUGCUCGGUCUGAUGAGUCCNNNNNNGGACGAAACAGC

Variants of: B1
assay.method.text: normalized RNA/DNA level with ligand (relative to sTRSVctl = 100) (log10 (% of sTRSVctl)); HEK293T; ligand: cyclic di-GMP (c-di-GMP-II aptamer); ligand concentration (+) RNA-Seq: 1 mM; higher = less ribozyme self-cleavage, higher mRNA level
measurement.context: reporter: mCherry (pCS4076), ligand present: yes
property.name: normalized RNA/DNA level with ligand (log10)

ACUAAA | 1.62
CACUGC | 1.87
ACUUCU | 1.84
CUCGAC | 1.85
CAUUAG | 1.84
GCUGAA | 1.65
GUCCUU | 1.87
GUGUUC | 1.57
ACGCUG | 1.79
UACUCU | 1.84
CCUCCU | 1.77
